molecular target: human CMG helicase (hCMG); assay: hCMG helicase fork-unwinding (strand displacement) assay; details: fork-unwinding; read-out: IC50 for hCMG helicase inhibition
Sequence (P49736 whole entry): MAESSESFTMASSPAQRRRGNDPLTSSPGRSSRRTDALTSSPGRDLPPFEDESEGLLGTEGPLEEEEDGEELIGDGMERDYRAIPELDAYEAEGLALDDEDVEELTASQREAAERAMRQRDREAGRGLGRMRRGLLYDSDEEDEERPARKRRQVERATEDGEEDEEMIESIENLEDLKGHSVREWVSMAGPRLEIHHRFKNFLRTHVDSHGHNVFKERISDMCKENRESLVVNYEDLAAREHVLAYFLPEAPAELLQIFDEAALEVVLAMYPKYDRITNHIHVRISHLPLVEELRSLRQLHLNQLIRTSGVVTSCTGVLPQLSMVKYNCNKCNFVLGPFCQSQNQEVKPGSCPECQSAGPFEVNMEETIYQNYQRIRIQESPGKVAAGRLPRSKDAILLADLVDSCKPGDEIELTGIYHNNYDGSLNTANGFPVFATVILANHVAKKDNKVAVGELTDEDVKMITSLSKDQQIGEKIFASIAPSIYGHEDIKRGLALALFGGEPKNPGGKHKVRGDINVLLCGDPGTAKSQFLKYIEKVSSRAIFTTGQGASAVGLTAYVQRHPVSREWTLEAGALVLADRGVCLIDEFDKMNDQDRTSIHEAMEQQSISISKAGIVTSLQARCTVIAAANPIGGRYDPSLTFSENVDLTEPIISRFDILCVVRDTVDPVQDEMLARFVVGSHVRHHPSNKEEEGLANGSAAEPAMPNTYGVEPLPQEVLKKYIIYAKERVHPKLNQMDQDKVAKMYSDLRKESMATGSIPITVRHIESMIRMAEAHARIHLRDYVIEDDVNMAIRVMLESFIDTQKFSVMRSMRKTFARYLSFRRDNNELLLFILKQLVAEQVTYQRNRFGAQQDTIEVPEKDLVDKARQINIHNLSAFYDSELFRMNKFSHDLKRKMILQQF
Sequence (P25205 whole entry, further chain): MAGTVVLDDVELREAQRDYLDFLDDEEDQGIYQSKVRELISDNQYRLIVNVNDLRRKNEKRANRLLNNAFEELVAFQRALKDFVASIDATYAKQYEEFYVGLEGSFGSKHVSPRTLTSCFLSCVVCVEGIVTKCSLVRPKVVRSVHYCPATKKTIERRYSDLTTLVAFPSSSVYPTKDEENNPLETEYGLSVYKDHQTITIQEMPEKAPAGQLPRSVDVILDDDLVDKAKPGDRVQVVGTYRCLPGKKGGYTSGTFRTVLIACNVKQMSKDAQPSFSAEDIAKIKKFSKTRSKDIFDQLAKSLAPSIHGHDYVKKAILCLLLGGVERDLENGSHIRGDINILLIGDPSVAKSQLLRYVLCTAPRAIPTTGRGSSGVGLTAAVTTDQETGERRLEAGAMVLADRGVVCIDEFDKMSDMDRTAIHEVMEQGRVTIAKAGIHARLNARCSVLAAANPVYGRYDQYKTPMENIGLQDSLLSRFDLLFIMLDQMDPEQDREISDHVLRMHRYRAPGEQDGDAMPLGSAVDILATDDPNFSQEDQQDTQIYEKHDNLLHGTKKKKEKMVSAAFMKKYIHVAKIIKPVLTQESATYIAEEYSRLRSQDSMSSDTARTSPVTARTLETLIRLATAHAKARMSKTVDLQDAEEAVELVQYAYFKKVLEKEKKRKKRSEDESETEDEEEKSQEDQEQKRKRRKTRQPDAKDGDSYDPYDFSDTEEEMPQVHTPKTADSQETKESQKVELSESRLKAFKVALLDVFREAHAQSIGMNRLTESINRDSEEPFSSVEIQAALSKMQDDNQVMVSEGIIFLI
Sequence (P33991 whole entry, further chain): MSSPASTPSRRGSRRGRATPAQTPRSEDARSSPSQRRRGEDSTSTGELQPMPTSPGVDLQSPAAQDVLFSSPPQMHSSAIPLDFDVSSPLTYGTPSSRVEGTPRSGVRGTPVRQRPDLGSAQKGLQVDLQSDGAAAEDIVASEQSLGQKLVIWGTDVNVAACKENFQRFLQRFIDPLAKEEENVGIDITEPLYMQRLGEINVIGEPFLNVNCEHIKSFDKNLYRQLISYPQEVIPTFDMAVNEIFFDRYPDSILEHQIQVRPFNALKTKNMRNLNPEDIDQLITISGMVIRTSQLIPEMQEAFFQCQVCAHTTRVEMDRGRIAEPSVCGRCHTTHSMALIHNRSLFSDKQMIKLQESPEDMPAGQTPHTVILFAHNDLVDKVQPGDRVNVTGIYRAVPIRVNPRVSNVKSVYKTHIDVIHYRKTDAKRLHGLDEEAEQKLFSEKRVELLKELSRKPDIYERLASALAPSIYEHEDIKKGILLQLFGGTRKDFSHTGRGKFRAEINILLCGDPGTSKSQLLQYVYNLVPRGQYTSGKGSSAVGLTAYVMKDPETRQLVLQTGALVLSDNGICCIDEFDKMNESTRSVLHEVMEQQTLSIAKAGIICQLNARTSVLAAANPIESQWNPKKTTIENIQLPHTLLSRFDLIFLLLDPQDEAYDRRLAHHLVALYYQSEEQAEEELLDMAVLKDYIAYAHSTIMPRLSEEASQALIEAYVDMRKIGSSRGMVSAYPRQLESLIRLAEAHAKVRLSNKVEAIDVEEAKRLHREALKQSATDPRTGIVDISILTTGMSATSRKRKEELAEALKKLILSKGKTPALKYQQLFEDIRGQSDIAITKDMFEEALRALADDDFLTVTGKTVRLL
Sequence (P33992 whole entry, further chain): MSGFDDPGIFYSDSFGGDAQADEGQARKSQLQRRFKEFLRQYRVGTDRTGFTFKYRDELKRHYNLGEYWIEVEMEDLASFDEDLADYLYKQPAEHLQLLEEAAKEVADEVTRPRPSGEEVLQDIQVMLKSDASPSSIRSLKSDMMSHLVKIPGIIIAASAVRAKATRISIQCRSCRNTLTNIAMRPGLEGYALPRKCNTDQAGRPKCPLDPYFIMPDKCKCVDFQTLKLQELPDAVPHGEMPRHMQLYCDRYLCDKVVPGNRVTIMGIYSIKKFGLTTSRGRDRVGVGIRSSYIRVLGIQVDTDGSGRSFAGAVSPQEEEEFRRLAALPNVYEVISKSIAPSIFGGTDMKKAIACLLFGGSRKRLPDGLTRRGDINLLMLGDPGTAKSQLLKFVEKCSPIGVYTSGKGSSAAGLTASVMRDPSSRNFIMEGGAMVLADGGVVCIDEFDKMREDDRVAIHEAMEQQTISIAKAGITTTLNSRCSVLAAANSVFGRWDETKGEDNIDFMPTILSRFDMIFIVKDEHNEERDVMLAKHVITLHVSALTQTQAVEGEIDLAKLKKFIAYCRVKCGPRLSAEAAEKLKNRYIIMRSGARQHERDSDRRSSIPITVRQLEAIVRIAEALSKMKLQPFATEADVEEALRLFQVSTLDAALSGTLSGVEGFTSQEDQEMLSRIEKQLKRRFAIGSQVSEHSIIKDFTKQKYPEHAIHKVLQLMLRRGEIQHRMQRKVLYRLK
Sequence (Q14566 whole entry, further chain): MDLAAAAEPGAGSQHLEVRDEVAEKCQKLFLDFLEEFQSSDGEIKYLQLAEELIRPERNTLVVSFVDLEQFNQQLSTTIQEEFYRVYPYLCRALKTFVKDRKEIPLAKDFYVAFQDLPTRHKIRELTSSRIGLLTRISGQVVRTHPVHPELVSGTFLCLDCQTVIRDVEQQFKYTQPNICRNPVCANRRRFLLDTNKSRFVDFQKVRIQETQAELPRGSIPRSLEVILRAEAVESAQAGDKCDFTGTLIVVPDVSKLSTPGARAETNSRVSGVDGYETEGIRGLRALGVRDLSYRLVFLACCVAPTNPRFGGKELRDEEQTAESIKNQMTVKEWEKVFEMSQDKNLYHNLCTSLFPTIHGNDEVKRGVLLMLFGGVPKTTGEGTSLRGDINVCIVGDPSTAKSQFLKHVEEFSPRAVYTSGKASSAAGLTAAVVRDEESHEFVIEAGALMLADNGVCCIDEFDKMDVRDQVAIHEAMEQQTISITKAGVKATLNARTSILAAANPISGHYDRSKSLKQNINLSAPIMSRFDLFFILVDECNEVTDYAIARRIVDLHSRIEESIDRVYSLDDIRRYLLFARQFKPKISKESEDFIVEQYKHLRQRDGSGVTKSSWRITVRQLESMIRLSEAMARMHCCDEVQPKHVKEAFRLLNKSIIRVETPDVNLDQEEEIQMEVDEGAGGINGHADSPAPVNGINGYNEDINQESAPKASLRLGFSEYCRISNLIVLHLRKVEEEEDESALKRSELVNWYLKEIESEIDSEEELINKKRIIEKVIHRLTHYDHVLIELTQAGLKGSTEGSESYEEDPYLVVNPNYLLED
Sequence (P33993 whole entry, further chain): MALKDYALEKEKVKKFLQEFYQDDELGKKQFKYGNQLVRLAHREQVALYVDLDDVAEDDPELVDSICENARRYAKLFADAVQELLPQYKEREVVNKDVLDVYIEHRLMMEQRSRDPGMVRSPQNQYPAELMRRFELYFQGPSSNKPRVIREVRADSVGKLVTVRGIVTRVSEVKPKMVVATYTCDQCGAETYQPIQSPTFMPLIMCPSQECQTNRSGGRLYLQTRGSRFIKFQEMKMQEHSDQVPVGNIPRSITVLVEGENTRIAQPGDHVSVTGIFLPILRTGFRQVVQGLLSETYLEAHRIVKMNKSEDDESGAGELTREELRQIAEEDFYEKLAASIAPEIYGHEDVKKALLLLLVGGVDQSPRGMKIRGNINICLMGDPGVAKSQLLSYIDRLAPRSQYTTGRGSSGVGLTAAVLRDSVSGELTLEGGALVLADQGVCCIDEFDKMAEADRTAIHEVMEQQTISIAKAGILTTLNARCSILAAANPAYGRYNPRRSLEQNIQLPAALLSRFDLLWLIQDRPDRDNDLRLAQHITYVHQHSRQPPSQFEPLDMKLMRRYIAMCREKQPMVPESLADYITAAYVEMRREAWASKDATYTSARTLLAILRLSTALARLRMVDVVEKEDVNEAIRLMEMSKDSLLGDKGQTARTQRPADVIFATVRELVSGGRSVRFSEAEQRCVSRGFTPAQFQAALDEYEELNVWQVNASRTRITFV
pIC50: −log10 of the molar value.
assay metric: pIC50

The compound CO[C@@H]1[C@@H](OC(=O)c2ccc(C)[nH]2)[C@@H](O)[C@H](Oc2ccc3c(O)c(NC(=O)c4ccc(O)c(CC=C(C)C)c4)c(=O)oc3c2C)OC1(C)C [MBC] showed pIC50 equal to ~4.23
